The origin of these recorded values is the supplement of paper PMC11061612.

# Tested on: JHH-2 (Hepatocellular Carcinoma);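 further: after 72 h of two-drug dosing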
# assay_text: Bliss excess, mean over the matrix (fraction); higher = more synergy
Form field: Bliss excess (one value per entry).

compound	tested_system	observed_measurement
C[C@@H]1COCCN1c1cc(C2([S@](C)(=N)=O)CC2)nc(-c2ccnc3[nH]ccc23)n1 [AZD6738] + O=C(c1cc(Cc2n[nH]c(=O)c3ccccc23)ccc1F)N1CCN(C(=O)C2CC2)CC1 [Olaparib] (first compound max 10 µM, 7x7, partner max 10 µM)	JHH-2 (Hepatocellular Carcinoma)	-0.0152

Qu. Query (compound): CN(CCO)CC[C@H](CSc1ccccc1)Nc1ccc(S(=O)(=O)NC(=O)c2ccc(N3CCC([C@@H](O)c4ccccc4-c4ccc(Cl)cc4)CC3)cc2)cc1S(=O)(=O)C(F)(F)F [AZD4320] + Nc1ccn([C@@H]2O[C@H](CO)[C@@H](O)C2(F)F)c(=O)n1 [Gemcitabine] (first compound max 1 µM, 7x7, partner max 0.3 µM) ; field requested: Bliss excess
Ans. -0.0302
